Values compiled from patent US20170355771A1.

- targetSystem: T1, GPIIb/IIIa (SEQ ID NOs: 23 and 24) (human, UniProt P08514 32-994; P05106 27-716)
- T1 construct: also called GPIIb/IIIa complex
- T1 sequence (P08514 32-994 limits assumed, chain 1 of 2): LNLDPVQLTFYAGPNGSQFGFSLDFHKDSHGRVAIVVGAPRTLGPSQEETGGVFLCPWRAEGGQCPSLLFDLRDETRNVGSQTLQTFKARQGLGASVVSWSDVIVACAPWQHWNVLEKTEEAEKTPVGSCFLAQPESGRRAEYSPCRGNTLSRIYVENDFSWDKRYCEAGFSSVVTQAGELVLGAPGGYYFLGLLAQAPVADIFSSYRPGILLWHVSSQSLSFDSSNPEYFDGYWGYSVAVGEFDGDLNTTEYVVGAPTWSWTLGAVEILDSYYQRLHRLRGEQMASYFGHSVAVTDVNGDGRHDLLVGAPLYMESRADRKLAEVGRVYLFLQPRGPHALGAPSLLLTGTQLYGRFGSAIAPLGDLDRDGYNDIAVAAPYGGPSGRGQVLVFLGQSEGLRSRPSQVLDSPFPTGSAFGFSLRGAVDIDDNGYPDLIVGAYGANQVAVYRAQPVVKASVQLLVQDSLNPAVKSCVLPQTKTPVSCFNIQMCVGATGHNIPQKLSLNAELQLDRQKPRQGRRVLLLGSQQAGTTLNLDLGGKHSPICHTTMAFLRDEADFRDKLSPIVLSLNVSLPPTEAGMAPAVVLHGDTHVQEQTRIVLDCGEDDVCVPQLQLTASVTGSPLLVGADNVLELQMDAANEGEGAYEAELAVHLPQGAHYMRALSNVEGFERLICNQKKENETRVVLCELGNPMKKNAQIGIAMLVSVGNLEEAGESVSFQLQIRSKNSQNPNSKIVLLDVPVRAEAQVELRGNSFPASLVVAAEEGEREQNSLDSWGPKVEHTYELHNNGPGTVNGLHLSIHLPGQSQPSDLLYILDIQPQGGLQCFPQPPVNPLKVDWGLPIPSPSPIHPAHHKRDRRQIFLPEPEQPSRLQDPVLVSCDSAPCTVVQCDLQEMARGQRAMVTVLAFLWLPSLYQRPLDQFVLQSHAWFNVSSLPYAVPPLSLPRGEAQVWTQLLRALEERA
- T1 sequence (P05106 27-716 limits assumed, chain 2 of 2): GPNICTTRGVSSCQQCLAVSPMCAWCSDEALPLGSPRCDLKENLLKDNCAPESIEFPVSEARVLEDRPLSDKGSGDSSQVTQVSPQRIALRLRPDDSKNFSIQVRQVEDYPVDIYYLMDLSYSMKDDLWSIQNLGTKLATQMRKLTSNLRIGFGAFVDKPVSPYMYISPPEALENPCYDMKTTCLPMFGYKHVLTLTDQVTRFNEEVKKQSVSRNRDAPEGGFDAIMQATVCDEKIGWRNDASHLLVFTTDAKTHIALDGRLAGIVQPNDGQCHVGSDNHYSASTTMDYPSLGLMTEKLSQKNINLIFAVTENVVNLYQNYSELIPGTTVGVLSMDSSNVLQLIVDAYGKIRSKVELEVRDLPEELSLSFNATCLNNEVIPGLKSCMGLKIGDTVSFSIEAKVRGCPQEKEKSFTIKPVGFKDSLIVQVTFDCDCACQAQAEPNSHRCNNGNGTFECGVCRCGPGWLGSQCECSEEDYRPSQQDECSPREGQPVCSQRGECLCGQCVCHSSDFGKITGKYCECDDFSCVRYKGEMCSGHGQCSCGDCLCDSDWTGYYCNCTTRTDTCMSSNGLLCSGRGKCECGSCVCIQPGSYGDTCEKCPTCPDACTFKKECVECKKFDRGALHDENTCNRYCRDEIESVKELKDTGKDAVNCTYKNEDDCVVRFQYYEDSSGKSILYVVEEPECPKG
- testDescription: Bio-Layer Interferometry (OctetRed), monovalent format, yeast-purified Fab; apparent dissociation rate Kdis

{"binder": "affinity matured h34D10 Fab VH111/VL0 (Fab, V domains shown, Yeast-purified Fab) VH: EVQLVESGGGLVKPGGSLRLSCAASGFTFNAYAMSWVRQAPGEGLVWVASISSGGTTYYPDSVKRQFTISRDNAKNTLYLQMNSLRAEDTAVYYCTRGGDYGYALDYWGQGTLVTVSS VL: EIVMTQSPATLSVSPGERATLSCRASSSVNYMYWYQQKPGQAPRLLIYYTSNLAPGIPARFSGSGSGTEFTLTISSLQSEDFAVYYCQQFSSSPWTFGQGTKVEIK", "koff [s⁻¹]": 0.0352}
{"binder": "affinity matured h34D10 Fab VH110/VL0 (Fab, V domains shown, Yeast-purified Fab) VH: EVQLVESGGGLVKPGGSLRLSCAASGFTFNAYAMSWVRQAPGKGLVWVASISSGGTTYYPDSVKRQFTISRDNAKNTLYLQMNSLRAEDTAVYYCTRGGDYGYALDYWGQGTLVTVSS VL: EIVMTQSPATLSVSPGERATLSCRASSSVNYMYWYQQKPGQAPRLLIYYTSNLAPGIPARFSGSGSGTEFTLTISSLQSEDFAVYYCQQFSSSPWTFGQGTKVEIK", "koff [s⁻¹]": 0.0337}
{"binder": "affinity matured h34D10 Fab VH112/VL0 (Fab, V domains shown, Yeast-purified Fab) VH: EVQLVESGGGLVKPGGSLRLSCAASGFTFSAYAMSWVRQAPGEGLVWVAGISSGGTTYYPDSVKRQFTISRDNAKNTLYLQMNSLRAEDTAVYYCTRGGDYGYALDYWGQGTLVTVSS VL: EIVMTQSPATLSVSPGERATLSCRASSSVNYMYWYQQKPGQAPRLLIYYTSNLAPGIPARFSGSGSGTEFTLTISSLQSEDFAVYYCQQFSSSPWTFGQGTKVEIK", "koff [s⁻¹]": 0.0352}
{"binder": "affinity matured h34D10 Fab VH104/VL0 (Fab, V domains shown, Yeast-purified Fab) VH: EVQLVESGGGLVKPGGSLRLSCAASGFTFSAYAMSWVRQAPGKGLVWVASISSGGTTYYPDSVKRQFTISRDNAKNTLYLQMNSLRAEDTAVYYCTRGGDYSYALDYWGRGTLVTVSS VL: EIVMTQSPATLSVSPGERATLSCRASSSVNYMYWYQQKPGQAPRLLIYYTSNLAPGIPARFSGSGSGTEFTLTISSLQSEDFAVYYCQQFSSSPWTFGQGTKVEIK", "koff [s⁻¹]": 0.0113}
{"binder": "affinity matured h34D10 Fab VH101/VL0 (Fab, V domains shown, Yeast-purified Fab) VH: EVQLVESGGGLVKPGGSLRLSCAASGFTFSAYAMSWVRQAPGKGLVWVASISSGGTTYYPDSVERQFTISRDNAKNTLYLQMNSLRAEDTAVYYCTRGGDYSYALDYWGQGTLVTVSS VL: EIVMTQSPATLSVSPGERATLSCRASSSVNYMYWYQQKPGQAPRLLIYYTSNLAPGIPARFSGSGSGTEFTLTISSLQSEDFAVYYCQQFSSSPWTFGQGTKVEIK", "koff [s⁻¹]": 0.00836}
{"binder": "affinity matured h34D10 Fab VH106/VL0 (Fab, V domains shown, Yeast-purified Fab) VH: EVQLVECGGGLVKPGGSLRLSCAASGFTFSAYAMSWVRQAPGKGLVWVASISSGGTTYYPDSVKRQFTISRDNAKNTLYLQMNSLRAEDTAVYYCTRGGDYSYALDYWGQGTLVTVSS VL: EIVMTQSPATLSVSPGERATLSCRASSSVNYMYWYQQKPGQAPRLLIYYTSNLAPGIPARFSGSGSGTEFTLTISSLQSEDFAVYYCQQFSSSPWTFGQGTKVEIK", "koff [s⁻¹]": 0.0127}
{"binder": "affinity matured h34D10 Fab VH114/VL0 (Fab, V domains shown, Yeast-purified Fab) VH: EMQLVESGGGLVKPGGSLRLSCAASGFTFSAYAMSWVRQAPGKGLVWVASISSGGTTYYPDSVKRQFTISRDNAKNTLYLQMNSLRAEDTAVYYCTRGGDYGYALDYWGQGTLVTVSS VL: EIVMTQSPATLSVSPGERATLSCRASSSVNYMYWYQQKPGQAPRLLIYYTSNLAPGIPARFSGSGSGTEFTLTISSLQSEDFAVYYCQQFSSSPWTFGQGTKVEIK", "koff [s⁻¹]": 0.0393}
{"binder": "affinity matured h34D10 Fab VH107/VL0 (Fab, V domains shown, Yeast-purified Fab) VH: EVQLVESGGGLVKPGESLRLSCAASGFTFSAYAMSWVRQAPGEGLVWVASISSGGTTYYPDSVKRQFTISRDNAKNTLYLQMNSLRAEDTAVYYCTRGGDYSYALDYWGQGTLVTVSS VL: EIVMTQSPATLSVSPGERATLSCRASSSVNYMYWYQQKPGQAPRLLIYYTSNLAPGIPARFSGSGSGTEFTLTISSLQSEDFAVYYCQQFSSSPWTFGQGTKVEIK", "koff [s⁻¹]": 0.0142}
{"binder": "affinity matured h34D10 Fab VH120/VL0 (Fab, V domains shown, Yeast-purified Fab) VH: EVQLVESGGGLVEPGGSLRLSCAASGFTFSAYAMSWVRQAPGKGLVWVASISSGGTTYYPDSVKRQFTISRDNAKNTLYLQMNSLRAEDTAVYYCTRGGDYGYALDYWGQGTLVTVSS VL: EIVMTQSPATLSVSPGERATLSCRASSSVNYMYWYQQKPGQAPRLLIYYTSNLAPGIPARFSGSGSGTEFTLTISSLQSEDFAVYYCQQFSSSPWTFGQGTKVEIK", "koff [s⁻¹]": 0.0492}
{"binder": "affinity matured h34D10 Fab VH105/VL0 (Fab, V domains shown, Yeast-purified Fab) VH: EVQLVESGGGLVKPGGSLRLSCAASGFTFSAYAMSWVRQAPGKGLVWVASISSGGTTYYPDSVKRQFTISRDNAKNTLYLQMNSLRAEDTAVYYCTRGGDYSYALDYWGQGTLVTVSS VL: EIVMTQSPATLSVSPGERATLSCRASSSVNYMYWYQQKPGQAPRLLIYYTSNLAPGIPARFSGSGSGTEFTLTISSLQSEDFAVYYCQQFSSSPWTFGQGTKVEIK", "koff [s⁻¹]": 0.0114}
